Test system: NK-YS (IL-2 2.5 ng/mL);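 also: normalised to DMSO-only wells as negative and benzethonium chloride as positive control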
Test: percent inhibition of viability; higher = more inhibition
Conditions: 72 h; 10000 nM
measure: percent inhibition of viability

Previously resolved entries follow.
# compound, testSystem, observedValue
rows = [
    ("C=C1C[C@@H]2[C@H](CC[C@]3(C)C(=O)CC[C@@H]23)[C@@]2(C)C=CC(=O)C=C12 [Exemestane] (max concentration tested 10000 nM)", "NK-YS (IL-2 2.5 ng/mL)", "18.9%"),
    ("N#CC[C@H](C1CCCC1)n1cc(-c2ncnc3[nH]ccc23)cn1 [Ruxolitinib] (max concentration tested 10000 nM)", "NK-YS (IL-2 2.5 ng/mL)", "84.1%"),
]

Kindly review the next compound as well.
Lab book: percent inhibition of viability of O=C(c1ccc(OCCN2CCCCC2)cc1)c1c(-c2ccc(O)cc2)sc2cc(O)ccc12 [Raloxifene] (max concentration tested 10000 nM) noted as 40.5%
